- SYSTEM_NAME: 11-beta-hydroxysteroid dehydrogenase 1 (Homo sapiens, UniProt P28845)
- Sequence (P28845 whole entry): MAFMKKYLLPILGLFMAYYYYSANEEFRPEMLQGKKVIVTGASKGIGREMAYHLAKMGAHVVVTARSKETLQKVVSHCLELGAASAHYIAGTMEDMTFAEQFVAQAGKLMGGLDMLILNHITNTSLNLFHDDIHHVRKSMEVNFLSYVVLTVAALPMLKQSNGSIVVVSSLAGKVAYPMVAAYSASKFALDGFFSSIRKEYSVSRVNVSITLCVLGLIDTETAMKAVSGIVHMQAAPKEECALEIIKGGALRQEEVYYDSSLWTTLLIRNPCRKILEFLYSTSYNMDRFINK
OBSERVABLE: Ki (nM)

>>> print(df.to_string())
                                   compound  units_text  value_reported
0  C[C@H](NC1=NC(=O)C(C)(C(F)(F)F)S1)c1ccccc1F (some centres not stated)          nM              20
1  C[C@H](NC1=NC(=O)[C@@](C)(C(F)(F)F)S1)c1ccccc1F          nM              22
